Measured values drawn from patent US20250368745A1 for this set.

# tested.target: T1, human IL-18BP (human, UniProt O95998 31-194)
# T1 construct: UniProt printed as 095998; also called hIL-18BP
# T1 sequence: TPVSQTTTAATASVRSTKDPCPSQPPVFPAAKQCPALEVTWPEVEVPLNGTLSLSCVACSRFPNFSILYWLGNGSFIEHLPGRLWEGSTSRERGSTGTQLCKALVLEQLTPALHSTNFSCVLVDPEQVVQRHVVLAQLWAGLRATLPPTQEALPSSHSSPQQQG
# method.notes: BLI, apparent KD
measurement.name: Kd (nM)

binder | measurement.name | numeric.result
SA301a LC-Y91V (antibody, name in Kabat numbering, V domains shown, IgG1 kappa) VH: QVQLQESGPGLVKPSQTLSLTCTVSGYSITSDYNSHWIRQPPGKGLEWIGYIHYSGSTNYNPSLKSRVTISRDTSKNQFSLKLSSVTAADTAVYYCARNYGSIYVNYFDYWGQGTLVTVSS VL: EIVLTQSPATLSLSPGERATLSCSASSSVSYMYWYQQKPGQAPRPLIYRTSNLASGIPARFSGSGSGTDFTLTISSLEPEDFAVYYCQQVHSYPTFGGGTKVEIK | Kd | 1.85
SA301a LC-Q89S (antibody, V domains shown) VH: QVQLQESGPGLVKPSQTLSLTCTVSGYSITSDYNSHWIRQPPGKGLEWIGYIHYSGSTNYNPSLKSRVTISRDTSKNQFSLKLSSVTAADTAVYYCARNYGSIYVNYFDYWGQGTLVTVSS VL: EIVLTQSPATLSLSPGERATLSCSASSSVSYMYWYQQKPGQAPRPLIYRTSNLASGIPARFSGSGSGTDFTLTISSLEPEDFAVYYCSQYHSYPTFGGGTKVEIK | Kd | 0.28
